- Test system: RXF 393
- assayText: NCI tumour cell line growth inhibition, 48 h
Activity calls are given as the source filed them. Rule as the data show it: active = GI50 up to about 1.1 µM and inactive = higher.
valueType: GI50

Completed entries (count: 3):
molecule: CCN1CCC(O)(c2ccc(Oc3ccc(F)cc3)cc2)C(C(=O)c2ccc(Oc3ccc(F)cc3)cc2)C1 (centres undefined)
valueType: GI50
result: 12.2 µM (inactive)
--
molecule: Cc1ccc(NC(=O)CCc2nnc3s/c(=C\c4cccc([N+](=O)[O-])c4)c(=O)n23)cc1
valueType: GI50
result: > 100 µM (inactive)
--
molecule: NN/C(=N\S(=O)(=O)c1cc(S(=O)(=O)c2ccccc2)cs1)Nc1ccc(Cl)cc1
valueType: GI50
result: 14.9 µM (inactive)

// switching to the query molecule
Input: Notebook: pull reported GI50 for RXF 393, entry "O=C(CNS(=O)(=O)Cc1ccccc1)NNc1ccccc1"
Output: > 100 µM (inactive)
